experiment summary: Solubility in 62.5% (v/v) aqueous organic solvents, quantification in HPLC
Assay type: physicochemical
run parameters: aqueous organic solvent, 20 °C, aqueous with cosolvent or surfactant or cyclodextrin, thermodynamic from solid, 62.5% (v/v) tetrahydrofuran in water
Counter-ions that a name gives are not always drawn.

>  <compound>
C[C@@H](O)[C@H]1C(=O)N2C(C(=O)O)=C(S[C@@H]3CN[C@H]([C@H](O)[C@@H]4CCNC4)C3)[C@H](C)[C@H]12 [monohydrate, monohydrochloride monohydrate]

>  <solubility at 30 min / µg/mL>
7220

$$$$

---

experiment summary: Solubility in 62.5% (v/v) aqueous organic solvents, quantification in HPLC
Type: physicochemical
run parameters: aqueous organic solvent, 20 °C, aqueous with cosolvent or surfactant or cyclodextrin, thermodynamic from solid, 62.5% (v/v) 1-methoxy-2-propanol in water
Structures can show the parent of a compound that is named as a salt.

>  <molecule>
C[C@@H](O)[C@H]1C(=O)N2C(C(=O)O)=C(S[C@@H]3CN[C@H]([C@H](O)[C@@H]4CCNC4)C3)[C@H](C)[C@H]12 [monohydrate, monohydrochloride monohydrate]

>  <solubility at 30 min, µg/mL>
4120

$$$$

---

experiment summary: Solubility in 62.5% (v/v) aqueous organic solvents, quantification in HPLC
Assay type: physicochemical
run parameters: aqueous organic solvent, 20 °C, aqueous with cosolvent or surfactant or cyclodextrin, thermodynamic from solid, 62.5% (v/v) 3-methoxy-3-methyl-1-butanol in water
Method: The solubility of (+)-(1R,5S,6S)-6-[(R)-1-hydroxyethyl]-1-methyl-2-[(2S,4S)-2-[(3R)-pyrrolidine-3-yl-(R)-hydroxymethyl]pyrrolidine-4-yl]thio-1-carbapen-2-em-3-carboxylic acid monohydrochloride monohydrate and trihydrate in various aqueous organic solvents at a concentration of 62.5% (v/v) in water at 20° C. was determined by HPLC in the following manner.
Structures can show the parent of a compound that is named as a salt.
property measured: solubility at 30 min (µg/mL)

>  <compound>
C[C@@H](O)[C@H]1C(=O)N2C(C(=O)O)=C(S[C@@H]3CN[C@H]([C@H](O)[C@@H]4CCNC4)C3)[C@H](C)[C@H]12 [monohydrate, monohydrochloride monohydrate]

>  <number>
5930

$$$$

---

experiment summary: Solubility in 62.5% (v/v) aqueous organic solvents, quantification in HPLC
Format: physicochemical
run parameters: aqueous organic solvent, 20 °C, aqueous with cosolvent or surfactant or cyclodextrin, thermodynamic from solid, 62.5% (v/v) dimethyl acetamide in water
Structures can show the parent of a compound that is named as a salt.

>  <molecule>
C[C@@H](O)[C@H]1C(=O)N2C(C(=O)O)=C(S[C@@H]3CN[C@H]([C@H](O)[C@@H]4CCNC4)C3)[C@H](C)[C@H]12 [monohydrate, monohydrochloride monohydrate]

>  <solubility at 30 min / µg/mL>
4060

$$$$

---

experiment summary: Solubility in 62.5% (v/v) aqueous organic solvents, quantification in HPLC
Format: physicochemical
run parameters: aqueous organic solvent, 20 °C, aqueous with cosolvent or surfactant or cyclodextrin, thermodynamic from solid, 62.5% (v/v) n-propanol in water
Protocol: The solubility of (+)-(1R,5S,6S)-6-[(R)-1-hydroxyethyl]-1-methyl-2-[(2S,4S)-2-[(3R)-pyrrolidine-3-yl-(R)-hydroxymethyl]pyrrolidine-4-yl]thio-1-carbapen-2-em-3-carboxylic acid monohydrochloride monohydrate and trihydrate in various aqueous organic solvents at a concentration of 62.5% (v/v) in water at 20° C. was determined by HPLC in the following manner.
Counter-ions that a name gives are not always drawn.
property measured: solubility at 30 min

>  <compound>
C[C@@H](O)[C@H]1C(=O)N2C(C(=O)O)=C(S[C@@H]3CN[C@H]([C@H](O)[C@@H]4CCNC4)C3)[C@H](C)[C@H]12 [monohydrate, monohydrochloride monohydrate]

>  <property measured>
solubility at 30 min

>  <result>
12.3 mg/mL

$$$$
